The measured values listed here are drawn from patent US20250059273A1.

TARGET_OR_TEST_SYSTEM: T1, rat P2X4R extracellular peptide (a.a. 301-313, C-RDLAGKEQRTLTK) (rat, not fully specified (N-terminus))
T1 construct: also called P2X4R peptide; rat P2X4 peptide
T1 peptide: RDLAGKEQRTLTK
MEASUREMENT_PROTOCOL: indirect ELISA of purified scFv on rat P2X4 peptide, concentration not shown
Ends that are not written are not given here.

# BINDER, binding result
data = [
    ("humanized hP2X4R scFv HC3-LC3 (scFv, HC-(G4S)3-LC with C-terminal His tag; also called hP2X4R HC3-LC3 scFv; HC3 LC3 hP2X4R scFv) scFv: MAEVQLVESGGGLVQPGGSLRLSCATSGFTFTDYYMHWVRQAPGKGLEWVGFIRNKANGYTTEYSASVKGRFTISRDNSKNTLYLQMNSLRAEDTAVYYCARWEGDLLYAMDYWGQGTLVTVSSGGGGSGGGGSGGGGSDIQMTQSPSSLSASVGDRVTITCRASQGISNYLNWYQQKPGKAPKLLIYYTSSLHSGVPSRFSGSGSGTDFTLTISSLQPEDFAYYYCQQYSKLPWTFGGGTKVEIKRAAALEHHHHHH", "binds"),
    ("humanized P2X4R scFv HC2-LC3 (scFv, HC-(G4S)3-LC with C-terminal His tag) scFv: MAQVQLQESGPGLVKPSQTLSLTCTTSGFTFTDYYMSWVRQAPGKGLEWIGFIRNKANGYTTEYSASVKGRFTISRDNSKNQFSLRLSSVTAADTAVYYCARWEGDLLYAMDYWGQGTTVTVSSGGGGSGGGGSGGGGSDIQMTQSPSSLSASVGDRVTITCRASQGISNYLNWYQQKPGKAPKLLIYYTSSLHSGVPSRFSGSGSGTDFTLTISSLQPEDFAYYYCQQYSKLPWTFGGGTKVEIKRAAALEHHHHHH", "binds"),
    ("humanized P2X4R scFv HC2-LC1 (scFv, HC-(G4S)3-LC with C-terminal His tag, expressed in E. coli) scFv: MAQVQLQESGPGLVKPSQTLSLTCTTSGFTFTDYYMSWVRQAPGKGLEWIGFIRNKANGYTTEYSASVKGRFTISRDNSKNQFSLRLSSVTAADTAVYYCARWEGDLLYAMDYWGQGTTVTVSSGGGGSGGGGSGGGGSDIQMTQTTSSLSASLGDRVTISCSASQGISNYLNWYQQKPDGTVKLLIYYTSSLHSGVPSRFSGSGSGTDYSLTISNLEQEDIATYYCQQYSKLPWTFGGGTKLEIKRAAALEHHHHHH", "binds"),
]
